# experiment_summary: Metabolic stability in mouse liver microsomes assessed as parent compound remaining after 15 mins
# Type: ADME, Microsome
# cond: read-out: Stability
measured_quantity: remaining at 0.25 h
Reply with the number and its unit after it.

[[record]]
compound = "Cc1ccc(NC(=O)c2ccc(CN3C(=O)c4ccc(Cl)cc4NC(=O)[C@H]3Cc3ccccn3)cc2C)nc1"
reported_value = "31%"


Data request: Form field: reported remaining at 0.25 h of Cn1cnc(C(=O)c2ccc(CN3C(=O)c4ccc(Cl)cc4NC(=O)[C@H]3Cc3ccccn3)cc2)c1
Data returned: 16%

Data request: What value of remaining at 0.25 h has been recorded for this entry: Cc1cnc(NC(=O)c2ccc(CN3C(=O)c4ccc(Cl)cc4NC(=O)[C@H]3Cc3ccccn3)cc2Cl)nc1
Data returned: 33%

meta.source: ChEMBL document CHEMBL4325886
